This collection of values is drawn from PubChem BioAssay (NCI).

test system: XF 498 CNS; experiment: NCI tumour cell line growth inhibition, 48 h
Could you please report measured TGI for the items listed next?
One number for each entry, in µM.

// known answers, use as guide
INSERT INTO assay_data (molecule, recorded_endpoint, experimental_value) VALUES
  ('Clc1ccc(-c2c(C3=NCCCN3)nnn2-c2ccc(Cl)cc2)cc1', 'TGI', 53.5),
  ('COc1ccc(/C(Cl)=C(\C=O)c2ccc([N+](=O)[O-])cc2)cc1', 'TGI', 40.4);

Then this molecule:
TGI lookup needed for C=C(C)C(=O)OC1CCC2(C)C(CCC3C2CCC2(C)C(c4ccc(=O)oc4)CC4OC432)C1 (stereo unspecified) , thanks. 21

* * *

system: KM12 colon; assay: NCI tumour cell line growth inhibition, 48 h
RECORDED ENDPOINT: TGI

INSERT INTO assay_data (molecule, tgt, experimental_value) VALUES
  ('C=C(C)C1CCC2(C(=O)O)CCC3(C)C(CCC4C5(C)CCC(OC(=O)NCc6ccccc6)C(C)(C)C5CCC43C)C12 (centres undefined)', 'KM12 colon', '12.2 µM');

Quick batch: TGI for everything below.
1. CCO/N=C(/N)c1ncn(Cc2ccccc2)c1NCC(OCC)OCC
2. COc1cc(NS(=O)(=O)c2ccc(-c3cnc(C4CC4)o3)cc2)ccc1F
3. CO[C@H]1C=C[C@@]23c4cc5c(cc4CO[C@]2(O)CN(C)[C@H]3C1)OCO5
4. CNc1nc(N)c(N=O)c(Nc2ccc(Br)cc2)n1
5. O=c1[nH]nc(Cc2ccccc2)[nH]1
6. Cn1c2ccccc2c2c3[nH]c(=O)[nH]c(=O)c3c3c4ccccc4n(C)c3c21

["> 100 µM", "18.1 µM", "> 100 µM", "> 100 µM", "> 100 µM", "> 100 µM"]

I need TGI for every entry listed below, if you could help.
1. CCNc1cc2c(cc1O)CC[C@@H]1[C@@H]2CC[C@]2(C)[C@@H](O)CC[C@@H]12
2. C=C1CC[C@@H]2[C@](C)(COC(C)=O)[C@H](OC(C)=O)CC[C@@]2(C)[C@@H]1CC(Nc1ccc(S(=O)(=O)Nc2ncccn2)cc1)C1=CCOC1=O (some centres undefined)

1: 22.4 µM; 2: 5.54 µM

* * *

system: SF-295 CNS; assay: NCI tumour cell line growth inhibition, 48 h; in the data active = GI50 below about 0.43 µM; inactive = the rest
Answer with one of the outcomes given here: T (active), F (inactive)

Recorded test outcome, item `COc1cc2c(c(OC)c1OC)C(=O)[C@@H]1c3ccc([N+](=O)[O-])cc3C(=O)N(CCCBr)[C@H]21` F

Also, `Cc1ccc(NC(=O)NCCCOc2ccc(N3C(N)=NC(N)=NC3(C)C)cc2Cl)cc1S(=O)(=O)F` please. F

* * *

tested on: SK-MEL-28 melanoma; assay: NCI tumour cell line growth inhibition, 48 h
RECORDED ENDPOINT: TGI

Worked examples, 5 molecules total:
INSERT INTO assay_data (molecule, tgt, experimental_value) VALUES
  ('COC1(OC)CC(CO)(CNc2nc(N)nc(Cl)c2/C=N\O)C1', 'SK-MEL-28 melanoma', '> 100 µM'),
  ('Cc1[nH]c2ccccc2c1C1Cc2ccccc2N1C(=O)/C(Cl)=C/c1ccccc1 (stereo unspecified)', 'SK-MEL-28 melanoma', '> 100 µM'),
  ('O=C(/C=C\n1cnc(-c2cc(C(F)(F)F)cc(C(F)(F)F)c2)n1)NNc1cnccn1', 'SK-MEL-28 melanoma', '11 µM'),
  ('O=C1NCCCNCCCNCCCNC(=O)c2cccc1n2', 'SK-MEL-28 melanoma', '> 100 µM'),
  ('O=C1NC2OCC(O)C(O)C2O1 (stereo unspecified)', 'SK-MEL-28 melanoma', '> 100 µM');

Consider now this further molecule.
Entry under review: `COc1ccccc1Cn1cc2c(c1-c1ccccc1)CCc1cnoc1-2` . Reported TGI? > 100 µM
